Origin of measurements: ChEMBL document CHEMBL1649571

System: Staphylococcus epidermidis
assay.procedure: Antibacterial activity against methicillin-susceptible Staphylococcus epidermidis by CLSI M7-A7 broth microdilution method
Type: functional
For each entry below, report its MIC50 value.

Task item: Recorded MIC50 for Cc1onc(-c2ccccc2)c1C(=O)N[C@@H]1C(=O)N2[C@@H]1SC(C)(C)[C@@H]2C(=O)O , please?
Reply: 0.12 µg/mL

Task item: How about this molecule: Cn1nnc(-c2ccc(-c3ccc(N4C[C@H](CO)OC4=O)cc3F)cn2)n1
Reply: 0.25 µg/mL

Task item: How about this molecule: CN[C@H](CC(C)C)C(=O)N[C@H]1C(=O)N[C@@H](CC(N)=O)C(=O)N[C@H]2C(=O)N[C@H]3C(=O)N[C@H](C(=O)N[C@H](C(=O)O)c4cc(O)cc(O)c4-c4cc3ccc4O)[C@H](O)c3ccc(c(Cl)c3)Oc3cc2cc(c3O[C@@H]2O[C@H](CO)[C@@H](O)[C@H](O)[C@H]2O[C@H]2C[C@](C)(N)[C@H](O)[C@H](C)O2)Oc2ccc(cc2Cl)[C@H]1O
Reply: 2 µg/mL

Task item: How about this molecule: CC(=O)NC[C@H]1CN(c2ccc(N3CCOCC3)c(F)c2)C(=O)O1
Reply: 1 µg/mL
